target: ScMyo3; assay: SPOT peptide array binding signal intensity (averaged, normalized) (arbitrary units (background-subtracted, floor 0; scale differs between SH3 domains)); higher = stronger binding of the SH3 domain to the peptide
Reported SPOT peptide array binding signal intensity values for a set of binders
reported_property: SPOT peptide array binding signal intensity

binder | operator_symbol | data_value
QLLNPNRRAPRRPLS | = | 70.5
SNRRPVPRRPSQPLN | = | 4.75
TPRLSLPRLPNKHHW | ≤ | 0
RLSRLLLSLPPESFT | ≤ | 0
IRMPSNPALPKKLLN | = | 35.2
LYEAMPPTLPHRDWK | = | 19.5
EQEEIAPSLPSRNSI | ≤ | 0
APPLPPTAPPPPSLP | = | 3490

Value source: the supplement of paper PMC4466140
